Taken from patent US7297714B2.

Below, each entry is listed alongside its reported pKi.
Target: UniProt:P42574
Sequence (P42574 29-175 limits assumed): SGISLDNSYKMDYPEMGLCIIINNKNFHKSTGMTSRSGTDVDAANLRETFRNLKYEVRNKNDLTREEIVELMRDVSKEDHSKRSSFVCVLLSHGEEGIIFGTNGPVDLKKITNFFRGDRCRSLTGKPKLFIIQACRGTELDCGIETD
Sequence (P42574 176-277 limits assumed): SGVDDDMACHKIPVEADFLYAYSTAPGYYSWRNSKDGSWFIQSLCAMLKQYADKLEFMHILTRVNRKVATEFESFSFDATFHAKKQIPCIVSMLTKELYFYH
pKi: −log10 of the molar value.
resultType: pKi

1) O=C1C[C@H](NC(=O)O[C@@H](CC2CCCCC2)C(=O)N2CCOCC2)C(O)O1 (stereo partly drawn): < 4.00
2) O=C1C[C@H](NC(=O)[C@H](CC2CCCC2)NS(=O)(=O)c2cccc(OC(F)(F)F)c2)C(O)O1 (stereo partly drawn): < 6.00
3) O=C1C[C@H](NC(=O)[C@H](CC2CCCCC2)NS(=O)(=O)c2cccc(OC(F)(F)F)c2)C(O)O1 (stereo partly drawn): < 5.00
4) O=C[C@H](CC(=O)O)NC(=O)[C@@H](CC(=O)N1CCOCC1)CC1CCCC1: < 5.00
5) O=C1C[C@H](NC(=O)[C@H](CC2CCCC2)NC(=O)c2ccc(-c3cccc(F)c3)o2)C(O)O1 (stereo partly drawn): < 6.00
6) O=C1C[C@H](NC(=O)O[C@@H](CC2CCCC2)Cn2cnc3cc(Cl)c(Cl)cc32)C(O)O1 (stereo partly drawn): < 5.00
7) O=C1C[C@H](NC(=O)[C@H](CC2CCCC2)NC(=O)N2CCOCC2)C(O)O1 (stereo partly drawn): < 5.00
8) CC(C)(C)C[C@H](OC(=O)N[C@H]1CC(=O)OC1O)C(=O)N1CCOCC1 (stereo partly drawn): < 4.00
9) O=C1C[C@H](NC(=O)[C@@H](CC(=O)N2CCOCC2)CC2CCCCC2)C(O)O1 (stereo partly drawn): < 5.00
